B1: SAM and SH3 domain-containing protein 1, residues 630 to 700; numbered along this chain, O94885 (parent)
chain: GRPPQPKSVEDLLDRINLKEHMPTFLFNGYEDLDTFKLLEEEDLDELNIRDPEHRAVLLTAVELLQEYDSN

- Variants of: B1
- ASSAY_NOTES: abundance fitness (aPCA) (normalised: wild type 0, dead -1); higher = more abundant; growth selection in yeast, the domain comes from the species named
- CONDITION_SUMMARY: Homo sapiens
OUTCOME_MEASURE: abundance fitness
Give the figure by itself; no unit, no explanation.

SEQ_TEXT: GRPPQPKSVEDLLDRINLKEHMPTFLFNGYEDLDTFKLLEEEDLDELNIRDPEHRAILLTAVELLQEYDSN [V57I]
abundance fitness: -0.059

SEQ_TEXT: GRCPQPKSVEDLLDRINLKEHMPTFLFNGYEDLDTFKLLEEEDLDELNIRDPEHRAVLLTAVELLQEYDSN [P3C]
abundance fitness: -0.073

SEQ_TEXT: GRPPQPKSVEDLLDRINLKEHMPTGLFNGYEDLDTFKLLEEEDLDELNIRDPEHRAVLLTAVELLQEYDSN [F25G]
abundance fitness: -0.882

SEQ_TEXT: GRPPQPKSVEDLLDRINLKEHMPTFLFNGYEDLDTFKLLEELDLDELNIRDPEHRAVLLTAVELLQEYDSN [E42L]
abundance fitness: -0.6

SEQ_TEXT: GRPPQPKSVEDLLDRINLKEHMPTFLFMGYEDLDTFKLLEEEDLDELNIRDPEHRAVLLTAVELLQEYDSN [N28M]
abundance fitness: -0.687

input: Reported abundance fitness for GRPPQPKSVEDLLDRINLKEHMPTFLFNGYEDLDTFKLLEEEDLDELNIRDPEHRAVLLTAVELLIEYDSN [Q66I] : what is it?
output: -0.563
